Tested System: Rlig1-AMP (Homo sapiens)
Construct: made in house; host or cells: E. coli BL21 (DE3), pET15b-Rlig1
Sequence (Q8N999 whole entry): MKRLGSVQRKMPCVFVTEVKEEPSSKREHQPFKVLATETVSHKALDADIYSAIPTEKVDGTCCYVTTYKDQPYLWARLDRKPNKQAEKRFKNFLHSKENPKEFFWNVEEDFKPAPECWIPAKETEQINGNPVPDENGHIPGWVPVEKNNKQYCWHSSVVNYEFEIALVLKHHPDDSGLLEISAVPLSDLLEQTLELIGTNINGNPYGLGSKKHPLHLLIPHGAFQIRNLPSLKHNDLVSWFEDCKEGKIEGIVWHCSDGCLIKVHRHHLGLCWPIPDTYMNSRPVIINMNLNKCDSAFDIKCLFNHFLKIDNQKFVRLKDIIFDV
Experimental Protocol: FRET-based high-throughput screening of inhibitors for Rlig1-AMP
Format: biochemical
Condition Summary: HTS hits; difference of raw data without and with enzyme
Result Type: 1-D Distance

Molecule	Observed Measurement
Cl.NC(CO)(CO)CCc1ccc(Sc2cccc(OCc3ccccc3)c2)cc1Cl [Mocravimod (hydrochloride)]	176
Cc1cnc(NCCCN(C)C)c2c1[nH]c1ccc3cc(O)ccc3c12	1659
O=C(NCCCCCCCCCC[P+](c1ccccc1)(c1ccccc1)c1ccccc1)c1nn(Cc2ccc(Cl)cc2Cl)c2ccccc12.[Br-]	1734
CN(C)c1ccc2nc3ccc(=[N+](C)C)cc-3sc2c1.O.O.O.[Cl-] [Methylene blue (trihydrate)]	1051
COS(=O)(=O)[O-].C[n+]1c2ccccc2nc2ccccc21 [Phenazine (methylsulfate)]	1419
N#Cc1cc(NS(=O)(=O)c2ccc(N)cc2)ccc1Oc1ccc(Cl)c(C(F)(F)F)c1	555
O=C(O)c1ccc(-c2ccc(N(c3ccc(-c4ccc(C(=O)O)cc4)cc3)c3ccc(-c4ccc(C(=O)O)cc4)cc3)cc2)cc1 [Antibacterial agent 18]	1227
CC(/C=C/C=C(\C)C(=O)O[C@@H]1O[C@H](CO[C@@H]2O[C@H](CO)[C@@H](O)[C@H](O)[C@H]2O)[C@@H](O)[C@H](O)[C@H]1O)=C\C=C\C=C(C)\C=C\C=C(/C)C(=O)O[C@@H]1O[C@H](CO[C@@H]2O[C@H](CO)[C@@H](O)[C@H](O)[C@H]2O)[C@@H](O)[C@H](O)[C@H]1O	1393
C/C1=C2/[N-]C([C@H](CC(N)=O)[C@@]2(C)CCC(=O)NC[C@@H](C)OP(=O)([O-])O[C@H]2[C@@H](O)[C@@H](n3cnc4cc(C)c(C)cc43)O[C@@H]2CO)[C@]2(C)N=C(/C(C)=C3N=C(/C=C4N=C1[C@@H](CCC(N)=O)C\4(C)C)[C@@H](CCC(N)=O)[C@]\3(C)CC(N)=O)[C@@H](CCC(N)=O)[C@]2(C)CC(N)=O.CC(=O)[O-].[Co+3] [Hydroxocobalamin (acetate)]	1452
CCCCCOc1ccccc1/C(=C\SC)n1ccnc1.Cl [Neticonazole (hydrochloride)]	1715
CC(=O)Nc1ccc(S(=O)(=O)[O-])c2cc(S(=O)(=O)[O-])c(N=Nc3ccc(N=Nc4ccc(S(=O)(=O)[O-])cc4)c4ccc(S(=O)(=O)[O-])cc34)c(O)c12.[Na+].[Na+].[Na+].[Na+]	272

###

Tested System: Rlig1-AMP (Homo sapiens)
Construct: made in house; host or cells: E. coli BL21 (DE3), pET15b-Rlig1
Experimental Protocol: FRET-based high-throughput screening of inhibitors for Rlig1-AMP
Format: biochemical
Condition Summary: HTS hits; without enzyme
The following compounds are listed with their measured Raw data [w/o Enzym] values.
Result Type: Raw data [w/o Enzym]

Compound	Tested System	Result Type	Observed Measurement
CCCCCCCCCCCCCCCC(=O)NCCCC[C@@H](N)C(=O)NCCCNCCCCNCCCN.Cl.Cl.Cl.Cl [AMXT-1501 tetrahydrochloride]	Rlig1-AMP (Homo sapiens)	Raw data [w/o Enzym]	4897
CN1CCCN(C(=O)c2cccc(-c3ccc(/C=C4/C(=O)Nc5ccc(Cl)cc54)o3)c2)CC1	Rlig1-AMP (Homo sapiens)	Raw data [w/o Enzym]	5815
C/C1=C2/[N-]C([C@H](CC(N)=O)[C@@]2(C)CCC(=O)NC[C@@H](C)OP(=O)([O-])O[C@H]2[C@@H](O)[C@@H](n3cnc4cc(C)c(C)cc43)O[C@@H]2CO)[C@]2(C)N=C(/C(C)=C3N=C(/C=C4N=C1[C@@H](CCC(N)=O)C\4(C)C)[C@@H](CCC(N)=O)[C@]\3(C)CC(N)=O)[C@@H](CCC(N)=O)[C@]2(C)CC(N)=O.CC(=O)[O-].[Co+3] [Hydroxocobalamin (acetate)]	Rlig1-AMP (Homo sapiens)	Raw data [w/o Enzym]	6279
COCC(=O)O[C@]1(CCN(C)CCCc2nc3ccccc3[nH]2)CCc2cc(F)ccc2[C@@H]1C(C)C.Cl.Cl [Mibefradil (dihydrochloride)]	Rlig1-AMP (Homo sapiens)	Raw data [w/o Enzym]	11294
CCCc1cc(C(=O)N[C@H](Cc2ccc(-c3cccc(OC(F)(F)F)c3)nc2)C(=O)N[C@@H]2CCNC2)sc1C	Rlig1-AMP (Homo sapiens)	Raw data [w/o Enzym]	9443
CC(/C=C/C=C(\C)C(=O)O[C@@H]1O[C@H](CO[C@@H]2O[C@H](CO)[C@@H](O)[C@H](O)[C@H]2O)[C@@H](O)[C@H](O)[C@H]1O)=C\C=C\C=C(C)\C=C\C=C(/C)C(=O)O[C@@H]1O[C@H](CO[C@@H]2O[C@H](CO)[C@@H](O)[C@H](O)[C@H]2O)[C@@H](O)[C@H](O)[C@H]1O	Rlig1-AMP (Homo sapiens)	Raw data [w/o Enzym]	3763
OC[C@H]1O[C@@H](Oc2cc3c(O)cc(O)cc3[o+]c2-c2cc(O)c(O)c(O)c2)[C@H](O)[C@@H](O)[C@@H]1O.[Cl-] [Delphinidin 3-glucoside (chloride)]	Rlig1-AMP (Homo sapiens)	Raw data [w/o Enzym]	5065
C=C1C(=O)O[C@@H]2[C@H]3C(C)=CC[C@@]34O[C@@]4(C)CC[C@@H]12	Rlig1-AMP (Homo sapiens)	Raw data [w/o Enzym]	10558
CC(=O)Nc1cc(Oc2ccc3c(C(=O)Nc4ccc(CN5CCN(C)CC5)c(C(F)(F)F)c4)cccc3c2)ncn1	Rlig1-AMP (Homo sapiens)	Raw data [w/o Enzym]	9073
COS(=O)(=O)[O-].COc1cccc2c1nc1ccccc1[n+]2C	Rlig1-AMP (Homo sapiens)	Raw data [w/o Enzym]	6611
COc1cccc2c1C(=O)c1c(O)c3c(c(O)c1C2=O)C[C@@](O)(C(C)=O)C[C@@H]3O[C@H]1C[C@H](NC(=O)OCc2ccc(O[C@@H]3O[C@H](CO)[C@H](O)[C@H](O)[C@H]3O)c([N+](=O)[O-])c2)[C@H](O)[C@H](C)O1	Rlig1-AMP (Homo sapiens)	Raw data [w/o Enzym]	3545
O=[N+]([O-])c1ccc(Nc2ccccc2-c2ccccc2)c2nonc12	Rlig1-AMP (Homo sapiens)	Raw data [w/o Enzym]	2173
COC1=CC(c2cc3ccccc3[nH]2)=N/C1=C\c1[nH]c(C)cc1C.CS(=O)(=O)O [Obatoclax (Mesylate)]	Rlig1-AMP (Homo sapiens)	Raw data [w/o Enzym]	1712
CCC(O)C(=O)[O-].[Na+] (centres unmarked) [Sodium 2-hydroxybutanoate]	Rlig1-AMP (Homo sapiens)	Raw data [w/o Enzym]	10677
N[C@@H](CS)C(=O)O	Rlig1-AMP (Homo sapiens)	Raw data [w/o Enzym]	10282
Cc1cc(N=Nc2ccc3c(c2)CCC(=O)N3)c(N)cc1O	Rlig1-AMP (Homo sapiens)	Raw data [w/o Enzym]	3032
C/C=C/c1cc(OC)c(OC)cc1OC	Rlig1-AMP (Homo sapiens)	Raw data [w/o Enzym]	10653
O=C1c2c(O)ccc(O)c2C(=O)c2c(NCCNCCO)ccc(NCCNCCO)c21	Rlig1-AMP (Homo sapiens)	Raw data [w/o Enzym]	3245
CN(C)C/C=C/C(=O)Nc1ccc(C(=O)Nc2cccc(Nc3ncc(Cl)c(-c4c[nH]c5ccccc45)n3)c2)cc1.Cl [THZ1 (Hydrochloride)]	Rlig1-AMP (Homo sapiens)	Raw data [w/o Enzym]	5741
NCCNc1ccc(NCCN)c2c1C(=O)c1ccncc1C2=O.O=C(O)/C=C\C(=O)O.O=C(O)/C=C\C(=O)O [Pixantrone (dimaleate)]	Rlig1-AMP (Homo sapiens)	Raw data [w/o Enzym]	5199
Cc1cnc(CNC(=O)c2c(=O)c3ccc(N4CCCN(C)CC4)nc3n3c2sc2ccccc23)cn1.Cl.Cl [CX-5461 dihydrochloride]	Rlig1-AMP (Homo sapiens)	Raw data [w/o Enzym]	8909
CCCCCCCCN=c1ccn(CCCCCCCCCCn2ccc(=NCCCCCCCC)cc2)cc1.Cl.Cl [Octenidine (dihydrochloride)]	Rlig1-AMP (Homo sapiens)	Raw data [w/o Enzym]	7318
Cc1cnc(NCCCN(C)C)c2c1[nH]c1ccc3cc(O)ccc3c12	Rlig1-AMP (Homo sapiens)	Raw data [w/o Enzym]	8534
Cn1nc(-c2ccccc2)nc2c(=O)n(C)c(=O)nc1-2	Rlig1-AMP (Homo sapiens)	Raw data [w/o Enzym]	17751
COc1cc2c(NC3CCN(C)CC3)cc(-c3ccc(C)o3)nc2cc1OCCCN1CCCC1	Rlig1-AMP (Homo sapiens)	Raw data [w/o Enzym]	6453
CCCCCOc1ccccc1/C(=C\SC)n1ccnc1.Cl [Neticonazole (hydrochloride)]	Rlig1-AMP (Homo sapiens)	Raw data [w/o Enzym]	10970
